We begin with a simple list: items and their reported GI50.
system: U251 CNS; test: NCI tumour cell line growth inhibition, 48 h

# count of solved cases: 4
COc1cc(/C=C\c2cc(OC)c(OC)c(OC)c2)cc(N/C=C\C(=O)c2cc(OC)c(OC)c(OC)c2)c1OC: 3.84 µM
CC(C(=O)O)c1cccc(Oc2ccccc2)c1 (stereo not given): > 100 µM
CCCCCCCN=C(N)c1ccc(N2CCN(c3ccc(C(N)=NCCCCCCC)cc3)CC2)cc1: 1.45 µM
Clc1nc(Cl)nc(Nc2cccc3ccccc23)n1: > 100 µM

Let us move to another entry and its GI50.
q: Value wanted: GI50 (U251 CNS) of entry CC(C)OC(=O)[C@H](C)NP(=O)(OC[C@H]1O[C@@H](n2ccc(=O)[nH]c2=O)[C@](C)(F)[C@@H]1O)Oc1ccccc1 (stereo not given in full)
a: > 100 µM

* * *

test system: OVCAR-5 ovarian; test: NCI tumour cell line growth inhibition, 48 h
property-label: TGI

# count of solved cases: 7
CC(=O)OCC1OC(OC2CC3C(C)(C)C(O)CC[C@]3(C)C3CCC45CC4(CCC5[C@@H](C)CC(O)C(O)C(C)(C)O)[C@]23C)C(O)C(O)C1O (stereo partly drawn): > 10 µM
C[C@H]1C(=O)O[C@@H]2CCN3CC=C(COC(=O)[C@](C)(O)[C@@]1(C)O)[C@H]23: > 100 µM
CC(=O)NC1=N/C(=C\c2ccc(Cl)cc2)C(=O)N1/C=C1\C(=O)Oc2ccccc2C1=O: > 100 µM
CCOC(=O)c1nc2cc(F)c(N3CCOCC3)cc2[nH]c1=O: > 100 µM
CSc1ccsc1-c1sc(-c2cc(SC)c(-c3sc(-c4cc(SC)c(-c5sccc5SC)s4)cc3SC)s2)cc1SC: > 100 µM
C=CCN(C(=O)CNC(=O)C(F)(F)F)c1cc(OCc2ccccc2)c2c(c1)c(C)cn2S(=O)(=O)c1ccccc1: > 100 µM
O=[P@@]1(c2ccccc2)O[C@H](COCc2ccccc2)[C@@H](OCc2ccccc2)[C@H](OCc2ccccc2)[C@H]1NCc1ccccc1: > 100 µM

Let us move to another entry and its TGI.
q: Report TGI for "CC(=O)O[C@H]1CC[C@@]2(C)C(=CC[C@H]3[C@@H]4C/C(=C\c5ccc(N(C)C)cc5)[C@H](OC(C)=O)[C@@]4(C)CC[C@@H]32)C1" please.
a: 52.8 µM

* * *

We begin with a simple list: items and their reported TGI.
test system: SK-OV-3 ovarian; assay: NCI tumour cell line growth inhibition, 48 h
// note: answer is a bare numeric in µM

# count of solved cases: 2
CC1(C)N=C(N)N=C(N)N1c1ccc(CCCCc2ccc(Cl)c(S(=O)(=O)F)c2)c(Cl)c1: 22.2
Cc1ccc(Nc2oc(-c3ccccc3)nc2[P+](c2ccccc2)(c2ccccc2)c2ccccc2)cc1: 3.69

q: Report TGI for "O=C1CCC(=O)c2c1c(O)c1ccncc1c2O" please.
a: 98.8

q: Report TGI for "O=P1(c2ccccc2)Nc2ccccc2SSc2ccccc2N1" please.
a: 44.4

* * *

We begin with a simple list: items and their reported GI50.
system: HL-60(TB) leukemia; experiment: NCI tumour cell line growth inhibition, 48 h
Where a SMILES comes first, the peptide text is derived from it. The star is where a group is joined. Boc = CC(C)(C)OC(=O)*

q: Report GI50 for "Cn1cc(-c2csc(-c3c[nH]c4ccc(Br)cc34)n2)c2cnccc21" please.
a: 2110 nM

q: Report GI50 for "CN(C)CCC(=O)C(=Cc1ccc(O)cc1)C(=O)CCN(C)C" please.
a: > 100000 nM

q: Report GI50 for CC(C(=O)O)c1cccc(Oc2ccccc2)c1 (stereo not given) please.
a: > 100000 nM

q: Report GI50 for "Cc1nc2cc(Nc3nc(Nc4ccc(F)cc4)nc(-c4cccs4)n3)ccc2n1Cc1ccccc1" please.
a: 2460 nM

q: Report GI50 for COC(=O)C(C)NC(=O)C(CCSC)NC(=O)C(Cc1ccccc1)NC(=O)OC(C)(C)C (stereo not drawn) (Boc-Phe-Met-Ala-OMe; configuration not given here) please.
a: 30.2 µg/mL
